# protocol: Half-crystallisation time (t1/2), isothermal DSC
# Type: physicochemical
Classification field: class 1 = t1/2 (sec) 110° C. at or over 70 s; class 0 = t1/2 (sec) 110° C. under 70 s.

Worked examples, 4 compounds total:
>  <compound>
O=C(O)c1ccccc1O [ortho-hydroxy benzoic acid]

>  <assigned label>
class 1

$$$$
>  <compound>
O=C(O)c1cccc(Cl)c1

>  <assigned label>
class 0

$$$$
>  <compound>
O=C(O)c1cc(O)ccc1O [2,5-dihydroxy benzoic acid]

>  <assigned label>
class 1

$$$$
>  <compound>
CC(C)(C)c1ccc(C(=O)[O-])cc1.[Na+] [sodium para-tert-butylbenzoate, reference compound]

>  <assigned label>
class 1

$$$$

Please tell me: is the compound O=C([O-])c1ccc([N+](=O)[O-])cc1Cl.[Na+] at or over 70 s in terms of t1/2 (sec) 110° C.?
class 1

Please tell me: is the compound O=C(O)c1ccccc1 [sodium benzoate, reference compound] at or over 70 s in terms of t1/2 (sec) 110° C.?
class 1

Please tell me: is the compound O=C([O-])Cc1ccccc1.[Na+] [sodium phenylacetate] at or over 70 s in terms of t1/2 (sec) 110° C.?
class 0

Please tell me: is the compound O=C(O)c1cccc([N+](=O)[O-])c1 at or over 70 s in terms of t1/2 (sec) 110° C.?
class 0

Please tell me: is the compound O=C([O-])Cc1cccc2ccccc12.[Na+] [sodium 1-naphthylacetate] at or over 70 s in terms of t1/2 (sec) 110° C.?
class 0

Please tell me: is the compound O=C(O)c1ccc(Oc2ccccc2)cc1 at or over 70 s in terms of t1/2 (sec) 110° C.?
class 1

* * *

# protocol: End group determination
# Format: physicochemical
# test conditions: PET I.V. 0.73 + 1% salt, 2-roll mill 300 °C 2 min
recorded endpoint: End Groups --OH (moles × 10^-6 g^-1)
Reply with just the number (in moles × 10^-6 g^-1).

For orientation, consider the following solved cases.
>  <compound>
O=C([O-])c1ccc(O)cc1.[Na+] [sodium p-hydroxybenzoate]

>  <uom>
moles × 10^-6 g^-1

>  <End Groups --OH>
64

$$$$
>  <compound>
O=C(O)c1ccccc1Cl [ortho-chlorobenzoic acid]

>  <uom>
moles × 10^-6 g^-1

>  <End Groups --OH>
55

$$$$
>  <compound>
O=C(O)c1ccccc1 [sodium benzoate, reference compound]

>  <uom>
moles × 10^-6 g^-1

>  <End Groups --OH>
54

$$$$
>  <compound>
O=C([O-])c1c(Cl)cccc1Cl.[Na+] [sodium 2,6-dichlorobenzoate]

>  <uom>
moles × 10^-6 g^-1

>  <End Groups --OH>
56

$$$$
>  <compound>
CC(C)(C)c1ccc(C(=O)[O-])cc1.[Na+] [sodium para-tert-butylbenzoate, reference compound]

>  <uom>
moles × 10^-6 g^-1

>  <End Groups --OH>
56

$$$$
>  <compound>
O=C([O-])c1c(O)cccc1O.[Na+] [sodium 2,6-dihydroxybenzoate]

>  <uom>
moles × 10^-6 g^-1

>  <End Groups --OH>
69

$$$$

# input for lookup
End Groups --OH for O=C(O)c1ccc(Cl)cc1Cl [2,4-dichlorobenzoic acid] ?
55

* * *

The following molecules are listed with their measured End Groups --COOH values.
# protocol: End group determination
# Assay type: physicochemical
# test conditions: 1% salt deposited from solution on PET chip, pressed 280 °C 1 minute
Where a name gives a salt, the structure may show the parent alone.
Reply with just the number (in moles × 10^-6 g^-1).

>  <molecule>
O=C(O)c1ccco1 [Sodium salt of 2-furoic acid]

>  <End Groups --COOH (moles × 10^-6 g^-1)>
29

$$$$
>  <molecule>
O=C(O)c1cccs1 [Sodium salt of 2-thiophencarboxylic acid]

>  <End Groups --COOH (moles × 10^-6 g^-1)>
24

$$$$
>  <molecule>
O=C(O)c1ccc(-c2ccccc2)cc1 [Sodium salt of 4-biphenylcarboxylic acid]

>  <End Groups --COOH (moles × 10^-6 g^-1)>
31

$$$$
>  <molecule>
O=C(O)c1ccccc1-c1ccccc1 [Sodium salt of 2-biphenylcarboxylic acid]

>  <End Groups --COOH (moles × 10^-6 g^-1)>
26

$$$$
>  <molecule>
O=[PH](O)c1ccccc1 [Sodium phenyl phosphinate]

>  <End Groups --COOH (moles × 10^-6 g^-1)>
25

$$$$

# input for lookup
End Groups --COOH for O=C(O)c1ccc2ccccc2c1 [Sodium salt of 2-naphthoic acid] ?
31
